Cited source for all entries: patent US5670501A

# tgt: adenosine A2 receptor
# experiment notes: Receptor affinity (radioligand binding), A2, [3H]NECA
# details: room temperature, 1 hour
pKi: −log10 of the molar value.
# pKi per record follows

Consider the following illustrative entries.
molecule="Cn1c(N2CCCC2)nc2c(N[C@H]3C[C@H]4CC[C@@H]3C4)ncnc21 (relative stereo)" observed="< 5.00"
molecule="Cn1c(N2CCOCC2)nc2c(N[C@H]3C[C@@H]4C[C@H]3C[C@@H]4O)ncnc21 (relative stereo)" observed="< 5.00"

Which pKi reading was recorded for the molecule COc1ccc2c(c1)[C@@H]1C[C@H]2[C@H](Nc2ncnc3c2ncn3C)C1 (relative stereo) ?
< 5.00
